Entries and their measured log10(IC50) follow.
# Subject Of Test: RORc ligand binding domain (Homo sapiens, UniProt P51449)
# Sequence (P51449 269-508 limits assumed): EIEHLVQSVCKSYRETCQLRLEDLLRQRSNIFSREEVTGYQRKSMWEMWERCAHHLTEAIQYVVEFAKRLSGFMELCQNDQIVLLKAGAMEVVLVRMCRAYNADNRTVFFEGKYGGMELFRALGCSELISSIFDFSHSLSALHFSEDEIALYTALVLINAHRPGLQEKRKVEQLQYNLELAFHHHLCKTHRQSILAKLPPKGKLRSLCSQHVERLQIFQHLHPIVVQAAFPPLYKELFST
# Test Summary: In vitro RORc ligand binding assay (25-[3H]hydroxycholesterol displacement)
# log10 transformed; quantity=IC50; unit=nM

- C[C@H]1CC[C@H](c2ccccc2)S(=O)(=O)N1Cc1cc(F)c(C2(c3nnc[nH]3)CC(=O)C2)cc1F: 0.91

`Cc1nnc(COCC2(c3ccc(CN4[C@@H](C)CC[C@H](c5ccccc5)S4(=O)=O)c(F)c3)CCOCC2)o1` yielded log10(IC50) of 1.96

`CCOC(=O)Cn1cnc(C2(c3cc(F)c(CN4[C@@H](C)CC[C@H](c5ccccc5)S4(=O)=O)cc3F)CCOCC2)n1` yielded log10(IC50) of 1.85

`C[C@H]1CC[C@H](c2ccccc2)S(=O)(=O)N1Cc1cc(F)c(C2(NCc3ncnn3C)COC2)cc1F` yielded log10(IC50) of 0.90

`C[C@H]1CC[C@H](c2ccccc2)S(=O)(=O)N1Cc1cc(F)c([C@]2(c3c[nH]c(=O)o3)C[C@](C)(O)C2)cc1F` yielded log10(IC50) of 0.51

`C[C@H]1CC[C@H](c2ccccc2)S(=O)(=O)N1Cc1cc(F)c(C2(NCc3cc(=O)[nH]o3)CCOCC2)cc1F` yielded log10(IC50) of 0.76

C[C@H]1CC[C@H](c2ccccc2)S(=O)(=O)N1Cc1cc(F)c(C2(NC(=O)C3CCOC3)COC2)cc1F (stereo in doubt) yielded log10(IC50) of 1.51

`C[C@H]1CC[C@H](c2ccccc2)S(=O)(=O)N1Cc1cc(F)c(C2(c3nnc(N)o3)CC(F)(F)C2)cc1F` yielded log10(IC50) of 1.11

`C[C@H]1CC[C@H](c2ccccc2)S(=O)(=O)N1Cc1cc(F)c(C2(C(=O)N3CCOCC3)CCOCC2)cc1F` yielded log10(IC50) of 2.03

`C[C@H]1CC[C@H](c2ccccc2)S(=O)(=O)N1Cc1cc(F)c([C@]2(c3n[nH]c(=O)o3)C[C@@](O)(C3CC3)C2)cc1F` yielded log10(IC50) of 0.63

C[C@H]1CC[C@H](c2ccccc2)S(=O)(=O)N1Cc1cc(F)c(C2(NC(=O)c3ncc[nH]3)COC2)cc1F (stereo in doubt) yielded log10(IC50) of 2.12

`C[C@H]1CC[C@H](c2ccccc2)S(=O)(=O)N1Cc1cc(F)c([C@]2(c3n[nH]c(=O)o3)C[C@](C)(O)C2)cc1F` yielded log10(IC50) of 0.53

`C[C@H]1CC[C@H](c2ccccc2)S(=O)(=O)N1Cc1cc(F)c([C@]2(c3n[nH]c(=O)o3)C[C@](O)(C3CC3)C2)cc1F` yielded log10(IC50) of 0.96
